# study-target: murine FolR1 (Mus musculus, UniProt P35846)
# Sequence (P35846 with tags, fused parts or gaps): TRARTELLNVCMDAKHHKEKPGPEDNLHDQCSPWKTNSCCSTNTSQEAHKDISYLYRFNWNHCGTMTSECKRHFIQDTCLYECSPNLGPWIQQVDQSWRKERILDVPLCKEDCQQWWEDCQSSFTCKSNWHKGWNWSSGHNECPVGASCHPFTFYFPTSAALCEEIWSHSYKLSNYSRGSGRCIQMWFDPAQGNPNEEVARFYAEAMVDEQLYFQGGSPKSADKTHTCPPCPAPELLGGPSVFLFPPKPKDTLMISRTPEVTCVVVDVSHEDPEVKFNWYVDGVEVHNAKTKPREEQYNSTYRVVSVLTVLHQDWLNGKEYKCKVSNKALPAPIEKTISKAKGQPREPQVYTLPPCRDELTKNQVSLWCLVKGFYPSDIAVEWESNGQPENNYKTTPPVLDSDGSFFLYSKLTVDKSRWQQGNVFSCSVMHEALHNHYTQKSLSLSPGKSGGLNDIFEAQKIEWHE
# Sequence (as listed by the source partner): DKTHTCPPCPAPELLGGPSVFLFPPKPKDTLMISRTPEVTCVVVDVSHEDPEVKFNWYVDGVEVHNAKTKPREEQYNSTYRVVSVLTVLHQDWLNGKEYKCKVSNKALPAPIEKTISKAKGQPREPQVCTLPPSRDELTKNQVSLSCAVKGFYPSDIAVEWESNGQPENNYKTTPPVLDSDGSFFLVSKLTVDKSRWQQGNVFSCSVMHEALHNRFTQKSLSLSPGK
# condition-label: IgG injected for 60 seconds at 500 nM
readout-name: Binding to muFolR1

molecule	readout-name	result
5D9: anti-FolR1 clone, generic multi-framework library (Vk3_20/VH1_46); Fab and IgG (antibody, V domains shown) VH: QVQLVQSGAEVKKPGASVKVSCKASGYTFTSYYMHWVRQAPGQGLEWMGIINPSGGSTSYAQKFQGRVTMTRDTSTSTVYMELSSLRSEDTAVYYCARSYIDMDYWGQGTLVTVSS VL: EIVLTQSPGTLSLSPGERATLSCRASQSVSSSYLAWYQQKPGQAPRLLIYGASSRATGIPDRFSGSGSGTDFTLTISRLEPEDFAVYYCQQDNWSPTFGQGTKVEIK	Binding to muFolR1	−
36F2: anti-FolR1 clone, generic multi-framework library (Vk_3_20/VH_1_46); Fab and IgG (antibody, V domains shown) VH: QVQLVQSGAEVKKPGASVKVSCKASGYTFTSYYMHWVRQAPGQGLEWMGIINPSGGSTSYAQKFQGRVTMTHDTSTSTVYMELSSLRSEDTAVYYCARSFFTGFHLDYWGQGTLVTVSS VL: EIVLTQSPGTLSLSPGERATLSCRASQSVSSSYLAWYQQKPGQAPRLLIYGASSRATGIPDRFSGSGSGTDFTLTISRLEPEDFAVYYCQQYTNEHYYTFGQGTKVEIK	Binding to muFolR1	+
11F8: anti-FolR1 clone, generic multi-framework library (Vk_1_5/VH_1_69); Fab and IgG (antibody, V domains shown) VH: QVQLVQSGAEVKKPGSSVKVSCKASGGTFSSYAISWVRQAPGQGLEWMGGIIPIFGTANYAQKFQGRVTITADKSTSTAYMELSSLRSEDTAVYYCARAVFYRAWYSFDYWGQGTTVTVSS VL: DIQMTQSPSTLSASVGDRVTITCRASQSISSWLAWYQQKPGKAPKLLIYDASSLESGVPSRFSGSGSGTEFTLTISSLQPDDFATYYCQQYTSPPPTFGQGTKVEIK	Binding to muFolR1	+
